species: Oryctolagus cuniculus; experiment: Concentration required to inhibit PAF (5*10e-8 M) induced platelet aggregation in rabbit platelet rich plasma(PRP) by 50%; assay type: functional, organism-based
measure: pIC50
Value format note: pIC50 is -log10 of concentration (mol/L); just state the number.

I have this compound here, CCCCCCCCCCCCCCOc1ccc(CCC(=O)Nc2cccc(C[n+]3csc(C)c3)c2)cc1.[Br-] , and I need its recorded pIC50.
5.14

I have this compound here, CCCCCCCCCCCCCCOc1ccc(CNC(=O)c2cccc(C[n+]3csc(C)c3)c2)cc1OC , and I need its recorded pIC50.
6.02

I have this compound here, CCCCCCCCCCCCCCOc1c(C)cc(CN(C(C)=O)c2cccc(C[n+]3csc(C)c3)c2)cc1C , and I need its recorded pIC50.
6.15

I have this compound here, CCCCCCCCCCCCCCOc1ccc(C)cc1CN(C(C)=O)c1cccc(C[n+]2csc(C)c2)c1.[Br-] , and I need its recorded pIC50.
5.82

I have this compound here, CCCCCCCCCCCCCCOc1ccc(C(=O)Nc2cccc(C[n+]3csc(C)c3)c2)cc1 , and I need its recorded pIC50.
5.23

====

tested on: Mus musculus; assay: Compound was evaluated for PAF-induced lethality in mouse (intraperitoneally at a dose of 1.0 mg/kg in saline 0.5 hr before lethal intravenous PAF challenge 75-150 mg/kg); assay type: ADME, organism-based; design: dose 1 mg/kg, route intraperitoneal; settings: in vivo
measure: Lethality

I have this compound here, CCCCCCCCCCCCCCOc1ccc(CN(C(C)=O)c2cccc(C[n+]3csc(C)c3)c2)cc1.[Br-] , and I need its recorded Lethality.
38%

I have this compound here, CCCCCCCCCCCCCCOc1ccc(CC(=O)Nc2ccc(C[n+]3csc(C)c3)cc2)cc1.[Br-] , and I need its recorded Lethality.
80%

I have this compound here, CCCCCCCCCCCCCCOc1c(C)cccc1CN(C(C)=O)c1cccc(C[n+]2csc(C)c2)c1.[Br-] , and I need its recorded Lethality.
20%

I have this compound here, CCCCCCCCCCCCCCOc1ccc(CN(C(=O)CCC)c2cccc(C[n+]3csc(C)c3)c2)cc1.[Br-] , and I need its recorded Lethality.
79%

====

organism: Oryctolagus cuniculus; test: Concentration required to inhibit PAF (5*10e-8 M) induced platelet aggregation in rabbit platelet rich plasma(PRP) by 50%; assay type: functional, organism-based
measure: IC50 (nM)
Unit nM implied. Number only.

I have this compound here, CCCCCCCCCCCCCCOc1cccc(CN(C(C)=O)c2cccc(C[n+]3csc(C)c3)c2)c1 , and I need its recorded IC50.
740

I have this compound here, CCCCCCCCCCCCCCOc1c(OC)cc(CN(C(C)=O)c2cccc(C[n+]3csc(C)c3)c2)cc1OC , and I need its recorded IC50.
570

I have this compound here, CCCCCCCCCCCCCCOc1ccc(CN(C(=O)NC)c2cccc(C[n+]3csc(C)c3)c2)cc1.[Br-] , and I need its recorded IC50.
530

I have this compound here, CCCCCCCCCCCCCCOc1ccc(NC(=O)c2cccc(C[n+]3csc(C)c3)c2)cc1 , and I need its recorded IC50.
2700

I have this compound here, CCCCCCCCCCCCCCOc1c(C)cc(CNC(=O)c2cccc(C[n+]3csc(C)c3)c2)cc1C , and I need its recorded IC50.
3100

I have this compound here, CCCCCCCCCCCCCCOc1ccc(CC(=O)Nc2ccc(C[n+]3csc(C)c3)cc2)cc1.[Br-] , and I need its recorded IC50.
600

I have this compound here, CCCCCCCCCCCCCCOc1ccc(CN(C(C)=O)c2ccc(C[n+]3csc(C)c3)cc2)cc1 , and I need its recorded IC50.
2100

I have this compound here, CCCCCCCCCCCCCCOc1cccc(CC(=O)Nc2cccc(C[n+]3csc(C)c3)c2)c1.[Br-] , and I need its recorded IC50.
550

I have this compound here, CCCCCCCCCCCCCCOc1cc(CN(C(C)=O)c2cccc(C[n+]3csc(C)c3)c2)cc(OC)c1 , and I need its recorded IC50.
960

I have this compound here, CCCCCCCCCCCCCCOc1ccc(CNC(=O)c2cccc(C[n+]3csc(C)c3)c2)cc1C(C)(C)C , and I need its recorded IC50.
3500

I have this compound here, CCCCCCCCCCCCCCOc1ccc(CCCN(C(C)=O)c2cccc(C[n+]3csc(C)c3)c2)cc1.[Br-] , and I need its recorded IC50.
3100

I have this compound here, CCCCCCCCCCCCCCOc1cc(CN(C(C)=O)c2cccc(C[n+]3csc(C)c3)c2)ccc1OC.[Br-] , and I need its recorded IC50.
370

I have this compound here, CCCCCCCCCCCCCCOc1ccc(CN(C(C)=O)c2cccc(C[n+]3csc(C)c3)c2)cc1Cl.[Br-] , and I need its recorded IC50.
130

I have this compound here, CCCCCCCCCCCCCCOc1ccc(CN(C(C)=O)c2cccc(C[n+]3csc(C)c3)c2)cc1.[Br-] , and I need its recorded IC50.
260

I have this compound here, CCCCCCCCCCCCCCOc1c(C)cccc1CN(C(C)=O)c1cccc(C[n+]2csc(C)c2)c1.[Br-] , and I need its recorded IC50.
3200

I have this compound here, CCCCCCCCCCCCCCOc1cccc(C(=O)Nc2cccc(C[n+]3csc(C)c3)c2)c1 , and I need its recorded IC50.
4200

I have this compound here, CCCCCCCCCCCCCCCCOc1ccc(OCC(=O)Nc2cccc(C[n+]3csc(C)c3)c2)cc1 , and I need its recorded IC50.
5000

I have this compound here, CCCCCCCCCCCCCCOc1cc(OC)ccc1CN(C(C)=O)c1cccc(C[n+]2csc(C)c2)c1.[Br-] , and I need its recorded IC50.
1400

I have this compound here, CCCCCCCCCCCCCCOc1ccc(NC(=O)Nc2cccc(C[n+]3csc(C)c3)c2)cc1 , and I need its recorded IC50.
1500

I have this compound here, CCCCCCCCCCCCOc1ccc(CC(=O)Nc2cccc(C[n+]3csc(C)c3)c2)cc1.[Br-] , and I need its recorded IC50.
2900

I have this compound here, CCCCCOc1c(OC)cc(CN(C(C)=O)c2cccc(C[n+]3csc(C)c3)c2)cc1OC , and I need its recorded IC50.
2300

====

organism: Oryctolagus cuniculus; assay: Concentration required to inhibit PAF (5*10e-8 M) induced platelet aggregation in rabbit platelet rich plasma(PRP) by 50%; assay type: functional, organism-based
pIC50: −log10 of the molar value.
Tick Met if pIC50 is 6 or greater. Tick Not met if pIC50 is less than 6.

Quick check: does CCCCCCCCCCCCCCCCOc1ccc(OCC(=O)Nc2ccccc2C[n+]2csc(C)c2)cc1 have pIC50 greater than or equal to 6?
Not met

Quick check: does CCCCCCCCCCCCCCOc1cc(CN(C(C)=O)c2cccc(C[n+]3csc(C)c3)c2)ccc1C.[Br-] have pIC50 greater than or equal to 6?
Not met

Quick check: does CCCCCCCCCCCCCCOc1ccc(CN(C(C)=O)c2cccc(C[n+]3csc(C)c3)c2)cc1OC have pIC50 greater than or equal to 6?
Met

Quick check: does COc1cc([C@H]2CC[C@H](c3cc(OC)c(OC)c(OC)c3)O2)cc(OC)c1OC have pIC50 greater than or equal to 6?
Not met

Quick check: does CCCCCCCCCCCCCCOc1ccc(CN(C(=O)CCC)c2cccc(C[n+]3csc(C)c3)c2)cc1.[Br-] have pIC50 greater than or equal to 6?
Met

Quick check: does CCCCCCCCCCCCCCOc1ccc(CNC(=O)c2cccc(C[n+]3csc(C)c3)c2)cc1 have pIC50 greater than or equal to 6?
Met

Quick check: does CCCCCCCCCCCCCCOc1ccc(OC)cc1CN(C(C)=O)c1cccc(C[n+]2csc(C)c2)c1.[Br-] have pIC50 greater than or equal to 6?
Met

Quick check: does Cc1nnc2n1-c1sc(CCC(=O)N3CCOCC3)cc1C(c1ccccc1Cl)=NC2 have pIC50 greater than or equal to 6?
Met

====

species on record: Oryctolagus cuniculus; assay: Concentration required to inhibit PAF (5*10e-7 M) induced platelet aggregation in rabbit platelet rich plasma(PRP) by 50%; type: functional, organism-based
measure: pIC50
Value format note: pIC50 is -log10 of concentration (mol/L); just state the number.

I have this compound here, CCCCCCCCCCCCCCOc1ccc(CCN(C(C)=O)c2cccc(C[n+]3csc(C)c3)c2)cc1 , and I need its recorded pIC50.
5.37

====

test system: Mus musculus; assay: Compound was evaluated for PAF-induced lethality in mouse (intraperitoneally at a dose of 1.0 mg/kg in saline 0.5 hr before lethal intravenous PAF challenge 75-150 mg/kg); type: ADME, organism-based; design: dose 1 mg/kg, route intraperitoneal; settings: in vivo
Tick Fulfilled if Lethality is 60% or greater. Tick Not fulfilled if Lethality is less than 60%.

Quick check: does CCCCCCCCCCCCOc1ccc(CC(=O)Nc2cccc(C[n+]3csc(C)c3)c2)cc1.[Br-] have Lethality greater than or equal to 60%?
Not fulfilled

Quick check: does CCCCCCCCCCCCCCOc1ccc(CNC(=O)c2ccc(C[n+]3csc(C)c3)cc2)cc1.[Br-] have Lethality greater than or equal to 60%?
Not fulfilled

Quick check: does CCCCCCCCCCCCCCOc1ccc(CC(=O)Nc2cccc(C[n+]3csc(C)c3)c2)cc1.[Br-] have Lethality greater than or equal to 60%?
Not fulfilled

Quick check: does CCCCCCCCCCCCCCOc1ccc(CCCN(C(C)=O)c2cccc(C[n+]3csc(C)c3)c2)cc1.[Br-] have Lethality greater than or equal to 60%?
Not fulfilled

Quick check: does CCCCCCCCCCCCCCOc1ccc(CN(C(=O)NC)c2cccc(C[n+]3csc(C)c3)c2)cc1.[Br-] have Lethality greater than or equal to 60%?
Fulfilled

Quick check: does CCCCCCCCCCCCCCOc1cccc(OP(=O)([O-])Oc2cccc(C[n+]3csc(C)c3)c2)c1C(=O)OC have Lethality greater than or equal to 60%?
Not fulfilled

Quick check: does CCCCCCCCCCCCCCOc1ccc(CNc2cccc(C[n+]3csc(C)c3)c2)cc1.[Br-] have Lethality greater than or equal to 60%?
Not fulfilled

Quick check: does CCCCCCCCCCCCCCOc1ccc(CCC(=O)Nc2cccc(C[n+]3csc(C)c3)c2)cc1.[Br-] have Lethality greater than or equal to 60%?
Not fulfilled

Quick check: does CCCCCCCCCCCCCCOc1cc(OC)ccc1CN(C(C)=O)c1cccc(C[n+]2csc(C)c2)c1.[Br-] have Lethality greater than or equal to 60%?
Fulfilled

Quick check: does CCCCCCCCCCCCCCOc1ccc(C)cc1CN(C(C)=O)c1cccc(C[n+]2csc(C)c2)c1.[Br-] have Lethality greater than or equal to 60%?
Not fulfilled

Quick check: does CCCCCCCCCCCCCCOc1c(CN(C(C)=O)c2cccc(C[n+]3csc(C)c3)c2)cccc1OC.[Br-] have Lethality greater than or equal to 60%?
Fulfilled

Quick check: does CCCCCCCCCCCCCCOc1cc(CN(C(C)=O)c2cccc(C[n+]3csc(C)c3)c2)ccc1OC.[Br-] have Lethality greater than or equal to 60%?
Not fulfilled

Quick check: does CCCCCCCCCCCCCCOc1cccc(CC(=O)Nc2cccc(C[n+]3csc(C)c3)c2)c1.[Br-] have Lethality greater than or equal to 60%?
Fulfilled

Quick check: does CCCCCCCCCCCCCCOc1cc(CN(C(C)=O)c2cccc(C[n+]3csc(C)c3)c2)ccc1C.[Br-] have Lethality greater than or equal to 60%?
Fulfilled
